B1: library; a variant is named by its letters at N, in order (parent)
chain: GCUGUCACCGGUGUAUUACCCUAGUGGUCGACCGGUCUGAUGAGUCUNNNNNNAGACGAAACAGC

variants of: B1; assay: normalized RNA/DNA level with ligand (relative to sTRSVctl = 100) (log10 (% of sTRSVctl)); ligand: hypoxanthine (xanthine aptamer); higher = less ribozyme self-cleavage, higher mRNA level; details: ligand concentration (+) RNA-Seq: 5 mM, HEK293T, reporter: mCherry (pCS4076), ligand present: yes
Below, each entry is listed with its recorded normalized RNA/DNA level with ligand (log10).
Please give only the number in your answer, with no unit.

Use the examples below as a reference point.
{"columns": ["mutation-annotation", "observed-value"],
 "data": [
  ["UAUCCU", 1.96],
  ["UACCUU", 1.93]
]}

"UAUAUG" yielded normalized RNA/DNA level with ligand (log10) of 1.88

"AGCCGG" yielded normalized RNA/DNA level with ligand (log10) of 1.91

"CGGCUA" yielded normalized RNA/DNA level with ligand (log10) of 1.93

"UAUGCC" yielded normalized RNA/DNA level with ligand (log10) of 1.93

"GCUGUA" yielded normalized RNA/DNA level with ligand (log10) of 1.96

"GUCCUA" yielded normalized RNA/DNA level with ligand (log10) of 1.95

"CGAUCG" yielded normalized RNA/DNA level with ligand (log10) of 1.94
